# measurement_target: phosphorylated ABL1(T315I)(229-499) (Homo sapiens, UniProt P00519, T315I)
# Construct: The protocol was adapted to generate phosphorylated 10×His-tev-ABL1(T315I)(229-499) for use in the SPR studies; made in house; host or cells: E. coli; autophosphorylated in vitro with ATP/MgCl2
# method_notes: SPR binding to phosphorylated ABL1(T315I)(229-499)
# measurement_parameters: PBST buffer, Ni-NTA capture of 10xHis-tag, read-out: Phosphorylated ABL1(T315I)(229-499) in PBST buffer KD
outcome_measure: Kd

Please report the recorded Kd for Nc1nc(N)c(N=O)c(OCC2CCCCC2)n1 [A-0001] . 16 µM
